system: E. faecalis; assay: MIC, broth microdilution; type: cell-based; conditions: Enterococcus faecalis, read-out: Average MIC value, E. faecalis VAN^R,TEI^R/VanA, 1 strain
Attribute: MIC

CN[C@H](CC(C)C)C(=O)N[C@H]1C(=O)N[C@@H](CC(N)=O)C(=O)N[C@H]2C(=O)N[C@H]3C(=O)N[C@H](C(=O)N[C@H](C(=O)O)c4cc(O)cc(O)c4-c4cc3ccc4O)[C@H](O[C@H]3C[C@](C)(N)[C@@H](O)[C@H](C)O3)c3ccc(c(Cl)c3)Oc3cc2cc(c3O[C@@H]2O[C@H](CO)[C@@H](O)[C@H](O)[C@H]2O[C@H]2C[C@](C)(NCc3ccc(-c4ccc(Cl)cc4)cc3)[C@@H](O)[C@H](C)O2)Oc2ccc(cc2Cl)[C@H]1O [ORI, oritavancin, reference compound] | 0.125 µg/mL
CC(=O)N[C@H]1[C@H](O[C@@H]2c3ccc(c(Cl)c3)Oc3cc4cc(c3O)Oc3ccc(cc3Cl)C[C@H]3NC(=O)[C@H](n5cc(COCCOCCCC(F)(F)C(F)(F)C(F)(F)C(F)(F)F)nn5)c5ccc(O)c(c5)Oc5cc(O)cc(c5)[C@H](NC3=O)C(=O)N[C@H]4C(=O)N[C@H]3C(=O)N[C@@H]2C(=O)N[C@H](C(=O)O)c2cc(O)cc(O)c2-c2cc3ccc2O)O[C@H](CO)[C@@H](O)[C@@H]1O | > 8 µg/mL

State MIC (E. faecalis) of CC(=O)N[C@H]1[C@H](O[C@@H]2c3ccc(c(Cl)c3)Oc3cc4cc(c3O)Oc3ccc(cc3Cl)C[C@H]3NC(=O)[C@H](NC(=O)CCC(F)(F)C(F)(F)C(F)(F)C(F)(F)C(F)(F)C(F)(F)C(F)(F)C(F)(F)F)c5ccc(O)c(c5)Oc5cc(O)cc(c5)[C@H](NC3=O)C(=O)N[C@H]4C(=O)N[C@H]3C(=O)N[C@@H]2C(=O)N[C@H](C(=O)O)c2cc(O)cc(O)c2-c2cc3ccc2O)O[C@H](CO)[C@@H](O)[C@@H]1O . > 8 µg/mL

State MIC (E. faecalis) of CC(=O)N[C@H]1[C@H](O[C@@H]2c3ccc(c(Cl)c3)Oc3cc4cc(c3O)Oc3ccc(cc3Cl)C[C@H]3NC(=O)[C@H](NC(=O)c5cc(OCCCSCCNC(=N)N)c(OCCCSCCNC(=N)N)c(OCCCSCCNC(=N)N)c5)c5ccc(O)c(c5)Oc5cc(O)cc(c5)[C@H](NC3=O)C(=O)N[C@H]4C(=O)N[C@H]3C(=O)N[C@@H]2C(=O)N[C@H](C(=O)O)c2cc(O)cc(O)c2-c2cc3ccc2O)O[C@H](CO)[C@@H](O)[C@@H]1O . > 8 µg/mL

State MIC (E. faecalis) of CC(=O)N[C@H]1[C@H](O[C@@H]2c3ccc(c(Cl)c3)Oc3cc4cc(c3O)Oc3ccc(cc3Cl)C[C@H]3NC(=O)[C@H](NC(=N)N)c5ccc(O)c(c5)Oc5cc(O)cc(c5)[C@H](NC3=O)C(=O)N[C@H]4C(=O)N[C@H]3C(=O)N[C@@H]2C(=O)N[C@H](C(=O)O)c2cc(O)cc(O)c2-c2cc3ccc2O)O[C@H](CO)[C@@H](O)[C@@H]1O . 0.125 µg/mL

State MIC (E. faecalis) of CN[C@H](CC(C)C)C(=O)N[C@H]1C(=O)N[C@@H](CC(N)=O)C(=O)N[C@H]2C(=O)N[C@H]3C(=O)N[C@H](C(=O)N[C@H](C(=O)O)c4cc(O)cc(O)c4-c4cc3ccc4O)[C@H](O)c3ccc(c(Cl)c3)Oc3cc2cc(c3O[C@@H]2O[C@H](CO)[C@@H](O)[C@H](O)[C@H]2O[C@H]2C[C@](C)(N)[C@H](O)[C@H](C)O2)Oc2ccc(cc2Cl)[C@H]1O [VAN, vancomycin, reference compound] . > 64 µg/mL
